# ASSAY_TARGET: T1, rEhTRF1 (TBP-related factor 1) (Entamoeba histolytica, UniProt A7UFC2 1-216)
# T1 sequence: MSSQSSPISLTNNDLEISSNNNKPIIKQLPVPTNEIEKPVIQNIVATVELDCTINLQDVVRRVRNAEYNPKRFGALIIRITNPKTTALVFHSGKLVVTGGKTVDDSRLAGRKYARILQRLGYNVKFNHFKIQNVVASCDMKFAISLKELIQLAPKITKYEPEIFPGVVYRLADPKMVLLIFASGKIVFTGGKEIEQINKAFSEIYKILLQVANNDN
# METHOD_DESCRIPTION: EMSA; 4 C, 1 mM MgCl2; EMSA: 12 mM Hepes pH 7.9, 60 mM KCl, 1 mM each DTT, EDTA, spermidine and MgCl2, 10% glycerol, poly(dG-dC) 1 ug/ul, 10 min at 4 C; probe 557 pM (TATA), 64 pM (GAAC) or 82 pM (GAAC-like)
# MEASUREMENT_CONDITIONS: protein: recombinant; tags: His tag; label: 5'-32P; blunt
// reported log10 Kd for each item listed
ASSAY_METRIC: log10 Kd (log10 of the value in nM)

>>> df
                                      binder  assay_metric  measured_number
 0  gAgTTAAA (6) (dsDNA) DNA 1: AATTCTCGAGTTAAAGAGAATT DNA 2: AATTCTCTTTAACTCGAGAATT      log10 Kd            -2.16
 1  cAcTcAAA (8) (dsDNA) DNA 1: AATTCTCCACTCAAAGAGAATT DNA 2: AATTCTCTTTGAGTGGAGAATT      log10 Kd            -1.51
 2  TATTTAAA (1) (dsDNA) DNA 1: AATTCTCTATTTAAAGAGAATT DNA 2: AATTCTCTTTAAATAGAGAATT      log10 Kd            -1.28
 3  GAAC-box (wild type) (dsDNA) DNA 1: AAGACAATGAACTAGAATG DNA 2: CATTCTAGTTCATTGTCTT      log10 Kd            -1.10
 4  TATTTttt (10) (dsDNA) DNA 1: AATTCTCTATTTTTTGAGAATT DNA 2: AATTCTCAAAAAATAGAGAATT      log10 Kd            -1.60
 5  cAcTTAAA (9) (dsDNA) DNA 1: AATTCTCCACTTAAAGAGAATT DNA 2: AATTCTCTTTAAGTGGAGAATT      log10 Kd            -2.01
 6  TATTggAA (3) (dsDNA) DNA 1: AATTCTCTATTGGAAGAGAATT DNA 2: AATTCTCTTCCAATAGAGAATT      log10 Kd            -1.87
 7  TAgTgAAA (2) (dsDNA) DNA 1: AATTCTCTAGTGAAAGAGAATT DNA 2: AATTCTCTTTCACTAGAGAATT      log10 Kd            -1.89
 8  TAcTcAAA (7) (dsDNA) DNA 1: AATTCTCTACTCAAAGAGAATT DNA 2: AATTCTCTTTGAGTAGAGAATT      log10 Kd            -1.53
 9  TATTaAAA (4) (dsDNA) DNA 1: AATTCTCTATTAAAAGAGAATT DNA 2: AATTCTCTTTTAATAGAGAATT      log10 Kd            -2.40
10  TATgTAAA (5) (dsDNA) DNA 1: AATTCTCTATGTAAAGAGAATT DNA 2: AATTCTCTTTACATAGAGAATT      log10 Kd            -2.17
